System: Pseudomonas aeruginosa
Assay: Antibacterial activity against Pseudomonas aeruginosa YY165 deltamexB mutant assessed as growth inhibition after 20 hrs by microdilution method
Format: functional
Conditions: YY165, 20 h
measurement name: MIC (µg/mL)

CCCCCCCCCCCCCCCCNC(=O)[C@@H](NCCCNC(=O)[C@@H](N)CCCNC(=N)N)[C@H](O[C@@H]1O[C@H](CN)[C@@H](O)[C@H]1O)[C@H]1O[C@@H](n2ccc(=O)[nH]c2=O)[C@H](O)[C@@H]1O: 16
CCCCCCCCCCCCCCC[C@H](NC(C)=O)C(=O)NCCCN[C@H](C(=O)O)[C@H](O[C@@H]1O[C@H](CN)[C@@H](O)[C@H]1O)[C@H]1O[C@@H](n2ccc(=O)[nH]c2=O)[C@H](O)[C@@H]1O: 32
CCCCCCCCCCCCCCCCC(=O)N[C@@H](CCCNC(=N)N)C(=O)NCCCN[C@H](C(=O)NCCCCNC(=N)N)[C@H](O[C@@H]1O[C@H](CN)[C@@H](O)[C@H]1O)[C@H]1O[C@@H](n2ccc(=O)[nH]c2=O)[C@H](O)[C@@H]1O: 4
CCCCCCCCCCCCCCC[C@H](NC(=O)[C@@H](N)[C@@H]1CCNC(=N)N1)C(=O)NCCCN[C@H](C(=O)O)[C@H](O[C@@H]1O[C@H](CN)[C@@H](O)[C@H]1O)[C@H]1O[C@@H](n2ccc(=O)[nH]c2=O)[C@H](O)[C@@H]1O: 32
CCCCCCCCCCCCCCC[C@H](NC(=O)[C@@H](N)CCCSC)C(=O)NCCCN[C@H](C(=O)O)[C@H](O[C@@H]1O[C@H](CN)[C@@H](O)[C@H]1O)[C@H]1O[C@@H](n2ccc(=O)[nH]c2=O)[C@H](O)[C@@H]1O: 16
